Hi there, I'd appreciate the recorded rf50 for every entry that follows.
Tested on: Calf thymus DNA
Test: Displacement of ethidium from DNA of calf thymus at pH 5
Assay type: nucleic-acid assay
Settings: Bos taurus
One number for each entry.

Solved entries (count: 6):
COc1ccc2c(c1)c1c3cc[n+](CCN4CCC(C5CCN(CC[n+]6ccc7c(ccc8c7c7cc(OC)ccc7n8C)c6)CC5)CC4)cc3ccc1n2C    0.32
Oc1ccc2[nH]c3ccc4c[n+](CCN5CCC(C6CCN(CC[n+]7ccc8c(ccc9[nH]c%10ccc(O)cc%10c98)c7)CC6)CC5)ccc4c3c2c1    0.5
COc1ccc2c(c1)c1c3c[n+](CCN4CCCCC4)ccc3ccc1n2C    9.5
COc1ccc2[nH]c3ccc4cc[n+](CCN5CCC(CCCC6CCN(CC[n+]7ccc8ccc9[nH]c%10ccc(OC)cc%10c9c8c7)CC6)CC5)cc4c3c2c1    0.25
COc1ccc2c(c1)c1c3c[n+](CCN4CCC(C5CCN(CC[n+]6ccc7ccc8c(c7c6)c6cc(OC)ccc6n8C)CC5)CC4)ccc3ccc1n2C.[Cl-].[Cl-]    0.4
COc1ccc2[nH]c3ccc4cc[n+](CC(O)CN5CCC(C6CCN(CC(O)C[n+]7ccc8ccc9[nH]c%10ccc(OC)cc%10c9c8c7)CC6)CC5)cc4c3c2c1 (configuration not stated)    0.24

Record rf50 per entry; entries follow.
1. [Cl-].[Cl-].c1ccc2c(c1)[nH]c1ccc3cc[n+](CCN4CCC(C5CCN(CC[n+]6ccc7ccc8[nH]c9ccccc9c8c7c6)CC5)CC4)cc3c12
2. COc1ccc2[nH]c3ccc4cc[n+](CCN5CCC(C6CCN(CC[n+]7ccc8ccc9[nH]c%10ccc(OC)cc%10c9c8c7)CC6)CC5)cc4c3c2c1.[Cl-].[Cl-] [DITERCALINIUM CHLORIDE]
3. Oc1ccc2[nH]c3ccc4cc[n+](CCN5CCC(C6CCN(CC[n+]7ccc8ccc9[nH]c%10ccc(O)cc%10c9c8c7)CC6)CC5)cc4c3c2c1.[Cl-].[Cl-]
4. COc1ccc2[nH]c3ccc4cc[n+](CCCCCCCCCC[n+]5ccc6ccc7[nH]c8ccc(OC)cc8c7c6c5)cc4c3c2c1.[Br-].[Br-]
5. COc1ccc2[nH]c3ccc4c[n+](CCN5CCC(C6CCN(CC[n+]7ccc8c(ccc9[nH]c%10ccc(OC)cc%10c98)c7)CC6)CC5)ccc4c3c2c1.[Cl-].[Cl-]
6. COc1ccc2[nH]c3ccc4cc[n+](CCN(C)CCCCCN(C)CC[n+]5ccc6ccc7[nH]c8ccc(OC)cc8c7c6c5)cc4c3c2c1

1: 0.4; 2: 0.32; 3: 0.32; 4: 2.4; 5: 0.32; 6: 0.8

====

Tested on: Calf thymus DNA
Test: Dimer binding constant for DNA of calf thymus at pH 7.4
Format: nucleic-acid assay
Conditions: Bos taurus
valueType: K app
Give bare numbers.

Solved entries (count: 4):
Oc1ccc2[nH]c3ccc4cc[n+](CCN5CCC(C6CCN(CC[n+]7ccc8ccc9[nH]c%10ccc(O)cc%10c9c8c7)CC6)CC5)cc4c3c2c1.[Cl-].[Cl-]    1e+07
Oc1ccc2[nH]c3ccc4c[n+](CCN5CCC(C6CCN(CC[n+]7ccc8c(ccc9[nH]c%10ccc(O)cc%10c98)c7)CC6)CC5)ccc4c3c2c1    500000
COc1ccc2[nH]c3ccc4cc[n+](CCCCCCCCCC[n+]5ccc6ccc7[nH]c8ccc(OC)cc8c7c6c5)cc4c3c2c1.[Br-].[Br-]    3e+06
COc1ccc2c(c1)c1c3cc[n+](CCN4CCC(C5CCN(CC[n+]6ccc7c(ccc8c7c7cc(OC)ccc7n8C)c6)CC5)CC4)cc3ccc1n2C    6e+06

Record K app per entry; entries follow.
1. COc1ccc2[nH]c3ccc4cc[n+](CCN(C)CCCCCN(C)CC[n+]5ccc6ccc7[nH]c8ccc(OC)cc8c7c6c5)cc4c3c2c1
2. Cc1c2cc[n+](CCN3CCC(C4CCN(CC[n+]5ccc6c(C)c7[nH]c8ccc(O)cc8c7c(C)c6c5)CC4)CC3)cc2c(C)c2c1[nH]c1ccc(O)cc12
3. COc1ccc2c(c1)c1c3c[n+](CCN4CCCCC4)ccc3ccc1n2C
4. COc1ccc2[nH]c3ccc4cc[n+](CCN5CCC(C6CCN(CC[n+]7ccc8ccc9[nH]c%10ccc(OC)cc%10c9c8c7)CC6)CC5)cc4c3c2c1.[Cl-].[Cl-] [DITERCALINIUM CHLORIDE]

["8e+06", "1e+06", 300000, "1e+07"]
